# reported % activation @ 100 μM; entries follow
biological target: GPCR GPR40 (Homo sapiens, UniProt O14842); construct: expressed in transfected cells; host or cells: HEK293; test: In vitro FLIPR assay with recombinant cells which express the GPCR GPR40 (agonist-induced intracellular Ca2+ change); format: cell-based; conditions: recombinant HEK293 cells expressing GPR40; 100 μM test substance; percentage change relative to control (0%: no test substance; 100%: 10 μM reference agonist linoleic acid)
Sequence (O14842 whole entry): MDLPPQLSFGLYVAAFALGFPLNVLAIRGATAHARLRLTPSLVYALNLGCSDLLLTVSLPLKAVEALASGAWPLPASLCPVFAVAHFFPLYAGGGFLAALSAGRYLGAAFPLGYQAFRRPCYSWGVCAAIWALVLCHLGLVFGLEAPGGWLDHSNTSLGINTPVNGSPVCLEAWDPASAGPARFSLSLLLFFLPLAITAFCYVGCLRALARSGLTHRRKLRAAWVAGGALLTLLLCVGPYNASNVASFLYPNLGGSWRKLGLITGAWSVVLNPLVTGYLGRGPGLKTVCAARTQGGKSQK
attribute_measured: % activation @ 100 μM (%)

INSERT INTO results (compound, attribute_measured, value_unit, recorded_result) VALUES
  ('O=C(O)C1CCC(COc2ncc(-c3ccccc3)c(-c3ccccc3)n2)CC1 (mixture of isomers)', '% activation @ 100 μM', '%', 96),
  ('O=C(O)[C@H]1CCCC(Oc2ncc(-c3ccccc3)c(-c3ccccc3)n2)C1 (stereo partly shown)', '% activation @ 100 μM', '%', 66),
  ('O=C(O)C1CC1CCCCCSc1ncc(-c2ccccc2)c(-c2ccccc2)n1 (stereo not shown)', '% activation @ 100 μM', '%', 101),
  ('O=C(O)[C@H]1CCC[C@@H](COc2ncc(-c3ccccc3)c(-c3ccccc3)n2)C1', '% activation @ 100 μM', '%', 74);

* * *

biological target: GPCR GPR40 (Homo sapiens, UniProt O14842); construct: expressed in transfected cells; host or cells: HEK293; assay: In vitro FLIPR assay with recombinant cells which express the GPCR GPR40 (agonist-induced intracellular Ca2+ change); format: cell-based; settings: recombinant HEK293 cells expressing GPR40; 100 μM test substance; percentage change relative to control (0%: no test substance; 100%: 10 μM reference agonist linoleic acid)
# reported % activation @ 100 μM; entries follow
attribute_measured: % activation @ 100 μM (%)

INSERT INTO assay_data (molecule, attribute_measured, recorded_result) VALUES
  ('O=C(O)CC12CC3CC(C1)CC(Sc1ncc(-c4ccccc4)c(-c4ccccc4)n1)(C3)C2', '% activation @ 100 μM', 64),
  ('CCC(CCC1CC1C(=O)O)Oc1ncc(-c2ccccc2)c(-c2ccccc2)n1 (stereo not drawn)', '% activation @ 100 μM', 5),
  ('O=C(O)C1CC1CCCCOc1ncc(-c2ccccc2)c(-c2ccccc2)n1 (stereo not drawn)', '% activation @ 100 μM', 101);
